system: NCI-H2085; assay: relative viability (nuclei count vs DMSO), 5 days (fraction); higher = more cells survive; conditions: first compound 0.1 µM
Doc: threshold 0.8 (exclusive). Items with relative viability beneath it return label 1; others return label 0.

molecule	group-label
NC(=O)Nc1cc(-c2cccc(F)c2)sc1C(=O)N[C@H]1CCCNC1 [AZD7762] + Nc1nc2[nH]cc(CCc3ccc(C(=O)N[C@@H](CCC(=O)O)C(=O)O)cc3)c2c(=O)[nH]1 [Pemetrexed] (partner 0.2 µM)	label 0
NC(=O)Nc1cc(-c2cccc(F)c2)sc1C(=O)N[C@H]1CCCNC1 [AZD7762] + CC(=O)Nc1cccc(-n2c(=O)n(C3CC3)c(=O)c3c(Nc4ccc(I)cc4F)n(C)c(=O)c(C)c32)c1 [Trametinib] (partner 0.02 µM)	label 1
NC(=O)Nc1cc(-c2cccc(F)c2)sc1C(=O)N[C@H]1CCCNC1 [AZD7762] + O=C(CCCCCCC(=O)Nc1ccccc1)NO [Vorinostat] (partner 1 µM)	label 0
NC(=O)Nc1cc(-c2cccc(F)c2)sc1C(=O)N[C@H]1CCCNC1 [AZD7762] + C[C@@H](Oc1cc(-c2cnn(C3CCNCC3)c2)cnc1N)c1c(Cl)ccc(F)c1Cl [Crizotinib] (partner 1 µM)	label 0
NC(=O)Nc1cc(-c2cccc(F)c2)sc1C(=O)N[C@H]1CCCNC1 [AZD7762] + Nc1ncn([C@H]2C[C@H](O)[C@@H](CO)O2)c(=O)n1 [Decitabine] (partner 2 µM)	label 1
NC(=O)Nc1cc(-c2cccc(F)c2)sc1C(=O)N[C@H]1CCCNC1 [AZD7762] + Cc1nc(NC(=O)N2CCC[C@H]2C(N)=O)sc1-c1ccnc(C(C)(C)C(F)(F)F)c1 [Alpelisib] (partner 2 µM)	label 0

====

tested on: PC-14; test: relative viability (nuclei count vs DMSO), 5 days (fraction); higher = more cells survive; settings: first compound 0.8 µM
Labelling: relative viability reported below 0.3 becomes fulfilled; at or above becomes not fulfilled.

molecule	group-label
Oc1nc(-c2ccc(C(F)(F)F)cc2)nc2c1CSCC2 [XAV939] + Cc1nc(Nc2ncc(C(=O)Nc3c(C)cccc3Cl)s2)cc(N2CCN(CCO)CC2)n1 [Dasatinib] (partner 0.075 µM)	fulfilled
Oc1nc(-c2ccc(C(F)(F)F)cc2)nc2c1CSCC2 [XAV939] + Nc1nc2[nH]cc(CCc3ccc(C(=O)N[C@@H](CCC(=O)O)C(=O)O)cc3)c2c(=O)[nH]1 [Pemetrexed] (partner 0.2 µM)	fulfilled
Oc1nc(-c2ccc(C(F)(F)F)cc2)nc2c1CSCC2 [XAV939] + CC1(C)CCC(c2ccc(Cl)cc2)=C(CN2CCN(c3ccc(C(=O)NS(=O)(=O)c4ccc(N[C@H](CCN5CCOCC5)CSc5ccccc5)c(S(=O)(=O)C(F)(F)F)c4)cc3)CC2)C1 [Navitoclax] (partner 0.5 µM)	not fulfilled
C=C1C(=O)O[C@@H](CCCCCCCC)[C@@H]1C(=O)O [C-75] + CS(=O)(=O)CCNCc1ccc(-c2ccc3ncnc(Nc4ccc(OCc5cccc(F)c5)c(Cl)c4)c3c2)o1 [Lapatinib] (partner 2 µM)	not fulfilled
Oc1nc(-c2ccc(C(F)(F)F)cc2)nc2c1CSCC2 [XAV939] + CS(=O)(=O)N1CCN(Cc2cc3nc(-c4cccc5[nH]ncc45)nc(N4CCOCC4)c3s2)CC1 [Pictilisib] (partner 1 µM)	not fulfilled
C=C1C(=O)O[C@@H](CCCCCCCC)[C@@H]1C(=O)O [C-75] + CCNC(=O)c1noc(-c2cc(C(C)C)c(O)cc2O)c1-c1ccc(CN2CCOCC2)cc1 [Luminespib] (partner 0.01 µM)	fulfilled
Oc1nc(-c2ccc(C(F)(F)F)cc2)nc2c1CSCC2 [XAV939] + CCNC(=O)c1noc(-c2cc(C(C)C)c(O)cc2O)c1-c1ccc(CN2CCOCC2)cc1 [Luminespib] (partner 0.01 µM)	fulfilled
C=C1C(=O)O[C@@H](CCCCCCCC)[C@@H]1C(=O)O [C-75] + COc1cccc2cc(-c3nc([C@H]4CC[C@H](C(=O)O)CC4)n4ncnc(N)c34)[nH]c12 [OSI-027] (partner 0.5 µM)	not fulfilled
C=C1C(=O)O[C@@H](CCCCCCCC)[C@@H]1C(=O)O [C-75] + CC(C)C[C@H](NC(=O)[C@H](Cc1ccccc1)NC(=O)c1cnccn1)B(O)O [Bortezomib] (partner 0.002 µM)	not fulfilled
